Cited source: patent US20090156577A1

Tested on: pathogenic bacteria
Experiment: MIC by microdilution broth method (NCCLS M7-A4), in vitro antibacterial activity
Type: cell-based
Settings: Streptococcus pneumoniae, Organism C: fluoroquinolone-resistant clinical isolate of Streptococcus pneumoniae (QRDR amino acid substitutions)
Listed next: entries and their corresponding MIC.
quantity.name: MIC (µg/mL)

{"molecule": "N#CC(CN)=C1CCN(c2c(F)cc3c(=O)c(C(=O)O)cn(C4CC4)c3c2OC(F)F)CC1", "modifier.sign": "=", "recorded.value": 1}
{"molecule": "NC/C=C1/CCCN(c2c(F)cc3c(=O)c(C(=O)O)cn(C4CC4)c3c2OC(F)F)C1", "modifier.sign": "=", "recorded.value": 4}
{"molecule": "CC1COc2c(N3CCC(=C(F)CN)CC3)c(F)cc3c(=O)c(C(=O)O)cn1c23 (stereo not shown)", "modifier.sign": "=", "recorded.value": 8}
{"molecule": "NCC(Cl)=C1CN(c2c(F)cc3c(=O)c(C(=O)O)cn(C4CC4)c3c2OC(F)F)C1", "modifier.sign": "=", "recorded.value": 8}
{"molecule": "COc1c(N2CCC/C(=C/CN)C2)c(F)cc2c(=O)c(C(=O)O)cn([C@@H]3C[C@@H]3F)c12", "modifier.sign": "=", "recorded.value": 2}
{"molecule": "CON=C1CN(c2nc3c(cc2F)c(=O)c(C(=O)O)cn3C2CC2)CCC1=CCN", "modifier.sign": "=", "recorded.value": 16}
{"molecule": "Nc1nc(-n2cc(C(=O)O)c(=O)c3cc(F)c(N4CC(=C(Cl)CO)C4)c(Cl)c32)c(F)cc1F", "modifier.sign": "=", "recorded.value": 0.12}
{"molecule": "NCC(F)=C1CN(c2nc3c(cc2F)c(=O)c(C(=O)O)cn3C2CC2)C1", "modifier.sign": "=", "recorded.value": 2}
{"molecule": "CNCC(F)=C1CCN(c2c(F)cc3c(=O)c(C(=O)O)cn(C4CC4)c3c2OC)CC1", "modifier.sign": "=", "recorded.value": 2}
{"molecule": "C[C@H]1COc2c(N3CCC(=C(F)CN(C)C)CC3)c(F)cc3c(=O)c(C(=O)O)cn1c23", "modifier.sign": "=", "recorded.value": 16}
{"molecule": "COc1c(N2CCC(=C(C#N)CN)CC2)c(F)cc2c(=O)c(C(=O)O)cn(C3CC3)c12", "modifier.sign": "=", "recorded.value": 0.5}
{"molecule": "CN(CC(Cl)=C1CCN(c2c(F)cc3c(=O)c(C(=O)O)cn(C4CC4)c3c2OC(F)F)CC1)Cc1ccccc1", "modifier.sign": "=", "recorded.value": 4}
{"molecule": "C/C(CN)=C1\\CCCN(c2nc3c(cc2F)c(=O)c(C(=O)O)cn3C2CC2)C1.O=C(O)C(F)(F)F", "modifier.sign": "=", "recorded.value": 16}
{"molecule": "NC/C(Cl)=C1/CCCN(c2cc3c(cc2F)c(=O)c(C(=O)O)cn3C2CC2)CC1", "modifier.sign": "=", "recorded.value": 16}
{"molecule": "C[C@H]1COc2c(N3CCC/C(=C(/F)CN)C3)c(F)cc3c(=O)c(C(=O)O)cn1c23", "modifier.sign": ">", "recorded.value": 16}
{"molecule": "COc1c(N2CCC(=C(Cl)CN)CC2)c(F)cc2c(=O)c(C(=O)O)cn(C3CC3)c12", "modifier.sign": "=", "recorded.value": 0.12}
